This listing pairs molecules with measured pIC50.
- Measurement target: human Cot catalytic domain (30-397 amino acids) (Homo sapiens, UniProt P41279)
- Construct: Purified recombinant human Cot catalytic domain (30-397 amino acids) was purchased from Cama Biosciences; purchased Cama Biosciences (so in the source)
- Sequence (P41279 30-397): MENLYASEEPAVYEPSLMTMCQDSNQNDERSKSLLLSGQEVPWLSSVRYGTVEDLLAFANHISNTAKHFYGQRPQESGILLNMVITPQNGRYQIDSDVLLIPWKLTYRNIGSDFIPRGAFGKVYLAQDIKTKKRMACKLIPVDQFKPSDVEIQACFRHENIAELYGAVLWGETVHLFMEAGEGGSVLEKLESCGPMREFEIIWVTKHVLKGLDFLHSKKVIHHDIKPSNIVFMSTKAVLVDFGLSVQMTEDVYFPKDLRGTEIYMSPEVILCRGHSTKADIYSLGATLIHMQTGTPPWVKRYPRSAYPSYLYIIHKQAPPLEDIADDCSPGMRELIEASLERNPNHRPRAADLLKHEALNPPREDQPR
- Test details: High Throughput Cot Biochemical Assay (KinEASE TR-FRET)
- Study conditions: Cot KinEASE TR-FRET (HTRF) biochemical assay, 400 μM ATP; read-out: IC50 HTRF
By convention, pIC50 is the negative base-10 log of a molar concentration.

Solved cases below.
molecule="[2H][C@](Nc1cc(F)c2ncc(C#N)c(N[C@H](CC)c3ccccc3)c2c1)(c1ccc(F)cc1)c1cn(C2CC2)nn1 [Example 291]" reported=8.10
molecule="[2H][C@](Nc1cc(Cl)c2ncc(C#N)c(NCC(C)(C)C)c2c1)(c1ccccc1)c1cn(C2CC2)nn1 [Example 312]" reported=8.30
molecule="[2H][C@](Nc1cc(Cl)c2ncc(C#N)c(NCC[Si](C)(C)C)c2c1)(c1ccc(F)cc1)c1cn(C2CC2)nn1 [Example 237]" reported=6.64
molecule="N#Cc1cnc2c(Cl)cc(N[C@@H](c3ccc(F)cc3)c3c[nH]nn3)cc2c1Nc1ccc(F)nc1 [Example 374]" reported=6.79
molecule="[2H][C@](Nc1cc(Cl)c2ncc(C#N)c(NCC(C)(C)C)c2c1)(c1cccc(C#N)c1)c1cn(C2CC2)nn1 [Example 341]" reported=9.00
molecule="[2H][C@](Nc1cc(Cl)c2ncc(C#N)c(NCC(C)(C)C)c2c1)(c1ccc(F)cc1)c1cn(C2CC2)nn1 [Compound 1]" reported=8.22

May I ask what pIC50 has been recorded for [2H]C(Nc1cc(Cl)c2ncc(C#N)c(N[C@H](CC)c3ccccc3)c2c1)(c1ccccc1Cl)c1nn[nH]c1C (some centres unmarked) [Example 326] ?
6.70

What would you report for [2H][C@](Nc1cc(Cl)c2ncc(C#N)c(NCC3(C(F)F)CC3)c2c1)(c1ccc(F)cc1)c1cn(C2CC2)nn1 [Example 203] ?
7.42

What would you report for [2H][C@@](Nc1cc(Cl)c2ncc(C#N)c(N[C@@H]3CCCC[C@@H]3NC(=O)OC(C)(C)C)c2c1)(c1ccc(F)cc1)c1cn(C2CC2)nn1 [Example 229] ?
5.58

What would you report for Cc1cc(Nc2c(C#N)cnc3c(Cl)cc(N[C@@H](c4ccc(F)cc4)c4c[nH]nn4)cc23)cnc1F [Example 375] ?
7.32

What would you report for CC(O)c1cccc([C@H](Nc2cc(Cl)c3ncc(C#N)c(Nc4ccc(F)c(Cl)c4)c3c2)c2cn(C3CCN(C(C)(C)C)CC3)nn2)c1 (some centres unmarked) [Compound 22] ?
8.70

What would you report for [2H]C(Nc1cc(Cl)c2ncc(C#N)c(NC3CCC4CC43)c2c1)(c1ccc(F)cc1)c1cn(C2CC2)nn1 (stereo in doubt) [Example 251] ?
6.98

FYI, the data here is from patent US10316017B2.
